System: barnyardgrass (Echinochloa crus-galli)
Experiment: Test A preemergence, barnyardgrass
Type: in vivo
Conditions: 500 g ai/ha, 0 to 100 scale
A collection of molecules and their measured Plant response rating, Barnyardgrass
The response must contain the number and no unit.

Look over these answered cases.
The recorded Plant response rating, Barnyardgrass for O=C1NCC(Cc2ccc(C(F)(F)F)cc2)C1C(=O)Nc1ccccc1C(F)(F)F (stereo not drawn) is 0

The recorded Plant response rating, Barnyardgrass for O=C1NCC(C#Cc2ccc(F)cc2)C1C(=O)Nc1ccc(F)c(F)c1F (stereo not drawn) is 50

The recorded Plant response rating, Barnyardgrass for O=C1NCC(Cc2ccc(F)c(F)c2)C1C(=O)Nc1cccc(F)c1F (stereo not drawn) is 60

Attention now shifts to the item below.
The recorded Plant response rating, Barnyardgrass for O=C1NCC(C#Cc2cccc(Cl)c2)C1C(=O)Nc1ccc(F)c(F)c1F (stereo not drawn) is 70

Each recorded value in this set is attributed to patent US10906873B2.
